- target.entity: Topoiomerase 1B (Molluscum contagiosum virus subtype 1)
- Sequence (Q98254 whole entry): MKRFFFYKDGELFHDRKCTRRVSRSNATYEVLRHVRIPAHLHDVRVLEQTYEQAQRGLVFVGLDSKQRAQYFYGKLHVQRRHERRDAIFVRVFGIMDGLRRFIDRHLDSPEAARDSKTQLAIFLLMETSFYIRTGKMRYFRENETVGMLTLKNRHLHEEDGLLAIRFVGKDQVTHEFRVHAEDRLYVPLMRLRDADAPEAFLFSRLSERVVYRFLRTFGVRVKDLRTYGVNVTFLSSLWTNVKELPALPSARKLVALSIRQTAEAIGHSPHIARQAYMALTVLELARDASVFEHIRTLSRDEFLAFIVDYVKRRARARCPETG
- assay.info: DNA cleavage and religation activity as inhibition of type 1B topoisomerase of molluscum contagiosum virus (MCV)

{"smiles.input": "CC1(C)CC2(CC(C)(C)c3c(Br)c(OS(=O)(=O)O)c(OS(=O)(=O)O)c(Br)c32)c2c(Br)c(OS(=O)(=O)O)c(OS(=O)(=O)O)c(Br)c21", "IC50 [µM]": 75}
{"smiles.input": "CC1(C)CC2(CC(C)(C)c3c(Br)c(O)c(O)c(Br)c32)c2c(Br)c(O)c(O)c(Br)c21", "IC50 [µM]": 50}

---

Listed here are compounds together with their documented CC50.
- assay.info: HeLa cell cytotoxicity by MTT cytotoxicity assay
- Type: cell-based
- protocol.conditions: human, HeLa cells; read-out: LD50 (the source's name)

{"compound": "CC1(C)CC2(CC(C)(C)c3cc(Br)c(OS(=O)(=O)O)cc32)c2cc(OS(=O)(=O)O)c(Br)cc21", "CC50, µM": 50}
{"compound": "CC1(C)CC2(CC(C)(C)c3ccc(O)c(NC(N)=O)c32)c2cc(O)c(NC(N)=O)cc21 (centres undefined)", "CC50, µM": 60}
{"compound": "Cc1cc2c(cc1O)C1(CC2(C)C)CC(C)(C)c2cc(C)c(O)cc21", "CC50, µM": 10}
{"compound": "CC1(C)CC2(CC(C)(C)c3cc(O)c(O)cc32)c2cc(O)c(O)cc21", "CC50, µM": 65}
{"compound": "CC1(C)CC2(CC(C)(C)c3ccc(O)c(N)c32)c2cc(O)c(N)cc21 (centres undefined)", "CC50, µM": 3}
{"compound": "CC1(C)CC2(CC(C)(C)c3ccc(O)c([N+](=O)[O-])c32)c2cc(O)c([N+](=O)[O-])cc21 (centres undefined)", "CC50, µM": 41}
{"compound": "CC1(C)CC2(CC(C)(C)c3cc([N+](=O)[O-])c(O)c([N+](=O)[O-])c32)c2cc(O)c([N+](=O)[O-])cc21 (centres undefined)", "CC50, µM": 41}
{"compound": "CC1(C)CC2(CC(C)(C)c3cc(C=O)c(O)cc32)c2cc(O)c(C=O)cc21", "CC50, µM": 4}
{"compound": "CC1(C)CC2(CC(C)(C)c3cc(Br)c(O)cc32)c2cc(O)c(Br)cc21", "CC50, µM": 4}

---

- assay.info: HeLa cell cytotoxicity by MTT cytotoxicity assay
- Assay type: cell-based
- protocol.conditions: human, HeLa cells; read-out: LD50 (the source's name)
experimental.endpoint: CC50

{"smiles.input": "CC1(C)CC2(CC(C)(C)c3cc(S(=O)(=O)O)c(O)cc32)c2cc(O)c(S(=O)(=O)O)cc21", "experimental.endpoint": "CC50", "result": "> 600 µM"}
{"smiles.input": "CC1(C)CC2(CC(C)(C)c3ccc(OS(=O)(=O)O)cc32)c2cc(OS(=O)(=O)O)ccc21", "experimental.endpoint": "CC50", "result": "> 400 µM"}
{"smiles.input": "CC1(C)CC2(CC(C)(C)c3ccc(O)cc32)c2cc(O)ccc21", "experimental.endpoint": "CC50", "result": "< 20 µM"}
{"smiles.input": "CC1(C)CC2(CC(C)(C)c3cc(I)c(O)cc32)c2cc(O)c(I)cc21", "experimental.endpoint": "CC50", "result": "< 20 µM"}
